# target.of.assay: T1, Human TIGIT-His (human, UniProt Q495A1 22-141, biotinylated in the ForteBio Fab assay)
# T1 construct: bought (Creative Biomart); also called Biotinylated Human TIGIT HIS; TIGIT-His monomer; not shown: His tag
# T1 sequence (looked up): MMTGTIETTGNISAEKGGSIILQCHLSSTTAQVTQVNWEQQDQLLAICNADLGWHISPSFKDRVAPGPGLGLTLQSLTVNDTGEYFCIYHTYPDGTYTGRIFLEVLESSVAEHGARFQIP
# procedure.text: ForteBio BLI, Fab KD, monovalent
measured.attribute: pKd
Value format note: pKd is -log10 of concentration (mol/L); just state the number.

The binder listed as Fab of anti-TIGIT clone 26486 (Fab, V domains shown) VH: QVQLQESGPGLVKPSETLSLTCAVSGYSISSGYYWAWIRQPPGKGLEWIGSIYHSGSTYYNPSLKSRVTISVDTSKNQFSLKLSSVTAADTAVYYCAIEGANYYDFGYVAFDIWGQGTMVTVSS VL: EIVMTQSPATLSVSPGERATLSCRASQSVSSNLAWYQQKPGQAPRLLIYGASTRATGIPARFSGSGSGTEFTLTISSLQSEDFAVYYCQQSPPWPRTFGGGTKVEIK has a reported pKd of 7.66

The binder listed as Fab of anti-TIGIT clone 29478 (Fab, V domains shown) VH: EVQLVESGGGVVQPGRSLRLSCAASGFTFESYGMVWVRQAPGKGLEWVASILYDGSNRYYADSVKGRFTVSRDNSKNTLYLQMNSLRAEDTAVYYCARVSYYYDSVELRWAEYFQHWGQGTLVTVSS VL: EIVLTQSPATLSLSPGERATLSCRASQSVSSYLAWYQQKPGQAPRLLIYDASKRATGIPARFSGSGSGTDFTLTISSLEPEDFAVYYCQQVHNFPLTFGGGTKVEIK has a reported pKd of 9.15

The binder listed as Fab of anti-TIGIT clone 29527 (Fab, V domains shown) VH: QVQLVESGGGVVQPGRSLRLSCAASGFTFSSSYMHWVRQAPGKGLEWVAVIGADGSNKYYADSVEGRFTISRDNSKNTLYLQMNSLRAEDTALYYCAKPVPRRRGLDVWGQGTMVTVSS VL: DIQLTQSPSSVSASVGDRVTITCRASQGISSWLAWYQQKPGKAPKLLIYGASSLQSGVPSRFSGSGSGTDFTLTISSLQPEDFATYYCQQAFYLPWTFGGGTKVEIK has a reported pKd of 8.88
